# measurement-target: B1 bradykinin receptor (Homo sapiens, UniProt P46663)
# test-method-notes: Binding affinity to human BK1 receptor
# Sequence (P46663 whole entry): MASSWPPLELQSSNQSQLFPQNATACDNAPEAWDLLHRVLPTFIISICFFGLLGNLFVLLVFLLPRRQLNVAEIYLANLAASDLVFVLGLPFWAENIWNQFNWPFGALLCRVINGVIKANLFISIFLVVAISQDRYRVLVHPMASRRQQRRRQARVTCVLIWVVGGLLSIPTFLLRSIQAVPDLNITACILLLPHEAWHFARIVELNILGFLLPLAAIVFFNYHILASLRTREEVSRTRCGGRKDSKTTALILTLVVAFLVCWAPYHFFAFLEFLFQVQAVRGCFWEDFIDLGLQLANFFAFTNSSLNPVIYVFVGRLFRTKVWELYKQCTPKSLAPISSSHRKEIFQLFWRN
pKi: −log10 of the molar value.
parameter-measured: pKi

Some entries whose results are on file:
{"columns": ["sample-smiles", "pKi"],
 "data": [
  ["COC(=O)c1c(F)cccc1-c1ccc(CNc2ccccn2)c(F)c1", 6.09],
  ["C#CCN1CCN(C(=O)c2ccc(NCc3ccc(-c4cccc(F)c4C(=O)OC)cc3F)nc2)CC1", 7.60]
]}

(P) COC(=O)c1c(F)cccc1-c1ccc(CNc2ccc(C(=O)N3CCN(C)CC3)cn2)c(F)c1
(Q) COC(=O)c1c(F)cccc1-c1ccc(CNc2ccc(C(=O)N3CCN(CC(F)(F)F)CC3)cn2)c(F)c1
Problem: Kindly identify which of P and Q has the larger recorded pKi value. Could you answer with the label of the item you picked?
Solution: P
(P: 8.36, Q: 7.28)

---

# measurement-target: B1 bradykinin receptor (Homo sapiens, UniProt P46663)
# test-method-notes: Binding affinity to human BK1 receptor
pKi: −log10 of the molar value.
parameter-measured: pKi

(P) COC(=O)c1c(F)cccc1-c1ccc(CNc2ccc(C(=O)N3CCCCC3)cn2)c(F)c1
(Q) COC(=O)c1c(F)cccc1-c1ccc(CNc2ccc(C(=O)N3CCN(CC(C)C)CC3)cn2)c(F)c1
(R) COC(=O)c1c(F)cccc1-c1ccc(CNc2ccc(C(=O)N3CCN(C4CCCCC4)CC3)cn2)c(F)c1
Problem: Put the items above in order of decreasing pKi. Give me the labels in the order the question wants.
Solution: Q, R, P

(1) COC(=O)c1c(F)cccc1-c1ccc(CNc2ccc(C(=O)N3CCN(C(=O)OC)CC3)cn2)c(F)c1
(2) COC(=O)c1c(F)cccc1-c1ccc(CNc2cc(C(=O)N3CCOCC3)ccn2)c(F)c1
(3) O=C(C[C@@H]1C(=O)Nc2ccccc2N1S(=O)(=O)c1ccc(Cl)c(Cl)c1)NCCc1ccc(C2=NCCN2)cc1
(4) COC(=O)c1c(F)cccc1-c1ccc(CNc2ccc(C(=O)N3CCN(C(=O)C(C)(C)C)CC3)cn2)c(F)c1
(5) C/C=C/CN1CCN(C(=O)c2ccc(NCc3ccc(-c4cccc(F)c4C(=O)OC)cc3F)nc2)CC1
Problem: Let's sort these by pKi, smallest first. Go ahead? Form entry: labels listed in requested order.
Solution: 2, 4, 1, 5, 3
(2: 5.68, 4: 6.67, 1: 7.47, 5: 8.48, 3: 10.47)

(a) COC(=O)c1c(F)cccc1-c1ccc(CNc2ccc(C(=O)N3CCN(C(C)=O)CC3)cn2)c(F)c1
(b) COC(=O)c1c(F)cccc1-c1ccc(CNc2ccc(C(=O)N3CCN(c4ccccn4)CC3)cn2)c(F)c1
Problem: Dear colleague, could you let me know whether a or b has the lower recorded pKi? Thanks. API: response body contains the label of the selected item.
Solution: b

(A) COC(=O)c1c(F)cccc1-c1ccc(CNc2cc(C(=O)N3CCN(C)CC3)ccn2)c(F)c1
(B) CCC(C)N1CCN(C(=O)c2ccc(NCc3ccc(-c4cccc(F)c4C(=O)OC)cc3F)nc2)CC1 (stereo not drawn)
Problem: Could you tell me which of these two has the smaller pKi figure? First: A Second: B Let me know the label of the one you choose.
Solution: A
(A: 6.05, B: 8.82)

---

# measurement-target: UniProtKB P46663
# test-method-notes: Binding affinity to human BK1 receptor
pKi: −log10 of the molar value.
parameter-measured: pKi

(A) CCCN1CCN(C(=O)c2ccc(NCc3ccc(-c4cccc(F)c4C(=O)OC)cc3F)nc2)CC1
(B) COC(=O)c1c(F)cccc1-c1ccc(CNc2ccc(C(=O)N3CCN(CCF)CC3)cn2)c(F)c1
(C) COC(=O)c1c(F)cccc1-c1ccc(CNc2ccc(C(=O)N3CCN(CC4CC4)CC3)cn2)c(F)c1
Problem: Which order do these fall in by pKi? Give them lowest to highest. Please respond by ranking the labels in the order requested.
Solution: B, A, C

---

# measurement-target: B1 bradykinin receptor (Homo sapiens, UniProt P46663)
# test-method-notes: Binding affinity to human BK1 receptor N298 mutant
# Sequence (P46663 whole entry, looked up, change not shown): as the sequence (P46663 whole entry) above
parameter-measured: Ki (nM)

(a) O=C(C[C@@H]1C(=O)Nc2ccccc2N1S(=O)(=O)c1ccc(Cl)c(Cl)c1)NCCc1ccc(C2=NCCN2)cc1
(b) COC(=O)c1c(F)cccc1-c1ccc(CNc2ccc(C(=O)N3CCN(c4ccccn4)CC3)cn2)c(F)c1
Problem: Could you kindly indicate whether a or b has the higher Ki value? API: response body contains the label of the selected item.
Solution: b
(b: 726 nM, a: 0.038 nM)

---

# measurement-target: B1 bradykinin receptor (Homo sapiens)
# test-method-notes: Binding affinity to human BK1 receptor
pKi: −log10 of the molar value.
parameter-measured: pKi

{"columns": ["sample-smiles", "parameter-measured", "result-value"],
 "data": [
  ["COC(=O)c1c(F)cccc1-c1ccc(CNc2ccc(C(=O)N3CCN(c4ccncc4)CC3)cn2)c(F)c1", "pKi", 10.35],
  ["CCN1CCN(C(=O)c2ccc(NCc3ccc(-c4cccc(F)c4C(=O)OC)cc3F)nc2)CC1", "pKi", 8.47]
]}

(P) COC(=O)c1c(F)cccc1-c1ccc(CNc2ccc(CN3CCCCC3)cn2)c(F)c1
(Q) COC(=O)c1c(F)cccc1-c1ccc(CNc2ccc(C(=O)N3CCN(C4CCCC4)CC3)cn2)c(F)c1
(R) COC(=O)c1c(F)cccc1-c1ccc(CNc2ccc(C(=O)N3CCN(CC(F)F)CC3)cn2)c(F)c1
(S) COC(=O)c1c(F)cccc1-c1ccc(CNc2ccc(CN3CCOCC3)cn2)c(F)c1
Problem: Your job: order these 4 records by pKi, ascending. Answer by listing the labels in the order asked for.
Solution: S, R, P, Q
(S: 6.74, R: 7.55, P: 8.04, Q: 8.82)

(1) COC(=O)c1c(F)cccc1-c1ccc(CNc2nccc(C)c2NC(=O)CC#N)c(F)c1
(2) COC(=O)c1c(F)cccc1-c1ccc(CNc2ccc(C(=O)N3CCOCC3)cn2)c(F)c1
(3) COC(=O)c1c(F)cccc1-c1ccc(CNc2ccc(C(=O)N3CCN(S(C)(=O)=O)CC3)cn2)c(F)c1
Problem: List the 3 entries from lowest pKi to highest pKi value. Form field (ranking): labels in requested order.
Solution: 2, 3, 1

---

# measurement-target: B1 bradykinin receptor (Homo sapiens, UniProt P46663)
# test-method-notes: Binding affinity to human BK1 receptor
parameter-measured: Ki (nM)

Solved entries:
{"columns": ["sample-smiles", "measurement-target", "parameter-measured", "unit-of-measurement", "result-value"],
 "data": [
  ["COC(=O)c1c(F)cccc1-c1ccc(CNc2ccc(C(=O)N3CCN(Cc4ccccc4)CC3)cn2)c(F)c1", "B1 bradykinin receptor (Homo sapiens, UniProt P46663)", "Ki", "nM", 26],
  ["COC(=O)c1c(F)cccc1-c1ccc(CNc2ccc(C(=O)N3CCN(c4cccnc4)CC3)cn2)c(F)c1", "B1 bradykinin receptor (Homo sapiens, UniProt P46663)", "Ki", "nM", 3.5],
  ["COC(=O)c1c(F)cccc1-c1ccc(CNc2ccc(C(=O)N3CCNCC3)cn2)c(F)c1", "B1 bradykinin receptor (Homo sapiens, UniProt P46663)", "Ki", "nM", 5.5],
  ["COC(=O)c1c(F)cccc1-c1ccc(CNc2ccc(C(=O)N3CCN(CC4CCC4)CC3)cn2)c(F)c1", "B1 bradykinin receptor (Homo sapiens, UniProt P46663)", "Ki", "nM", 3.4]
]}

(P) COC(=O)c1c(F)cccc1-c1ccc(CNc2ccc(C(=O)N3CCN(CC4CCCC4)CC3)cn2)c(F)c1
(Q) COC(=O)c1c(F)cccc1-c1ccc(CNc2ccc(C(=O)N3CCN(CCC(C)C)CC3)cn2)c(F)c1
(R) C=CCCN1CCN(C(=O)c2ccc(NCc3ccc(-c4cccc(F)c4C(=O)OC)cc3F)nc2)CC1
(S) COC(=O)c1c(F)cccc1-c1ccc(CNc2ccc(C(=O)N3CCN(c4ccccc4)CC3)cn2)c(F)c1
Problem: Give the ascending ranking of the items by reported Ki. Reply: labels, ordered per the request.
Solution: P, R, Q, S
(P: 1.7 nM, R: 4 nM, Q: 9.5 nM, S: 62 nM)

---

# measurement-target: B1 bradykinin receptor (Homo sapiens)
# test-method-notes: Binding affinity to human BK1 receptor D291 mutant
pKi: −log10 of the molar value.
parameter-measured: pKi

(A) COC(=O)c1c(F)cccc1-c1ccc(CNc2ccc(C(=O)N3CCN(c4ccccn4)CC3)cn2)c(F)c1
(B) COC(=O)c1c(F)cccc1-c1ccc(CNc2ccc(C(=O)N3CCN(c4ccncc4)CC3)cn2)c(F)c1
(C) O=C(C[C@@H]1C(=O)Nc2ccccc2N1S(=O)(=O)c1ccc(Cl)c(Cl)c1)NCCc1ccc(C2=NCCN2)cc1
Problem: Sort by pKi with smallest numbers at the start of the list. Labels, ranked as asked.
Solution: A, B, C
(A: 7.07, B: 10.10, C: 10.31)
